assay: Stability in rat liver microsomes assessed as parent compound remaining after 10 mins; type: ADME, microsome; conditions: read-out: Stability
API: label(entry) gives Condition met if the entry's remaining at 10 min is strictly smaller than 70%; on equality or larger values it gives Condition not met.

Reference set (5 entries):
O=C(O)CCc1cc(F)c(OCc2c(-c3ccccc3)noc2C(F)(F)F)c(F)c1 | Condition not met
Cc1ccc(-c2noc(C(F)(F)F)c2COc2c(F)cc(CCC(=O)O)cc2F)cc1 | Condition met
O=C(O)CCc1ccc(OCc2c(-c3ccc(Cl)cc3)noc2C(F)(F)F)c(F)c1F | Condition not met
O=C(O)CCc1cc(F)c(OCc2c(-c3ccc(Cl)cc3)noc2C(F)(F)F)c(F)c1 | Condition not met
Cc1ccc(-c2noc(C(F)(F)F)c2COc2c(F)cc(CC(C)C(=O)O)cc2F)cc1 (stereo unspecified) | Condition met

Query: Say whether its remaining at 10 min is strictly beneath 70%. Entry: `CCc1onc(-c2ccc(Cl)cc2)c1COc1ccc(CCC(=O)O)c(C)c1C`
Response: Condition met

Query: Can you check `O=C(O)CCc1cc(F)c(OCc2c(-c3ccc(Br)cc3)noc2C(F)(F)F)c(F)c1` next?
Response: Condition not met

Query: Can you check `O=C(O)CCc1cc(F)c(OCc2c(-c3ccc(F)cc3Cl)noc2C(F)(F)F)c(F)c1` next?
Response: Condition not met

Query: Can you check `CCCc1onc(-c2ccc(Cl)cc2)c1COc1ccc(CCC(=O)O)c(C)c1C` next?
Response: Condition met

Query: Can you check `O=C(O)CCc1cc(F)c(OCc2c(-c3ccc(F)cc3)noc2C(F)(F)F)c(F)c1` next?
Response: Condition met
